- Target Or System: T1, rhIL-1RAcP/Fc Chimera (human, UniProt Q9NPH3 21-359)
- T1 construct: also called P013_03; P013-03
- T1 sequence (looked up): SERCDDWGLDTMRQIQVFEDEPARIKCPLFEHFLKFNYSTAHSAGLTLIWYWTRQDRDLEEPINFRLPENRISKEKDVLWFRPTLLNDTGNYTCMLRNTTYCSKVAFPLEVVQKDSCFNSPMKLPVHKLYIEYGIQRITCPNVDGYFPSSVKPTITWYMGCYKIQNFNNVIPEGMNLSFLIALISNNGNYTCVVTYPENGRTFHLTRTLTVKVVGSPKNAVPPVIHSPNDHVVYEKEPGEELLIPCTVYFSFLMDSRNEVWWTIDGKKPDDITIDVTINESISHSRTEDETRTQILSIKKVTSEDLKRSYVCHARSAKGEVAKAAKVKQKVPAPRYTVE
- Method Notes: ELISA, primary supernatant, coated hu-IL-1RAcP-Fc
Readout Kind: hu-IL1RaP ELISA (OD)
Numbers only here, please. The scale is OD.

Request: What measured hu-IL1RaP ELISA (OD) goes with P013.S.01.B.C03 (antibody, V domains shown, rabbit monoclonal antibody; also called P013.A.00133.D11) VH: QSVEESGGRLVTPGTPLTLTCTVSGIDLSNYAMSWVRQAPGKGLEWIGSVISGGSTYYATWARGRFTISKSSTTVDLKMTSLTTEDTATYFCARGCPGYNGDKYTFDLWGPGTLVTVSS VL: AFEMTQTPSSVSEPVGGTVTIKCQASQSIYNYLSWYQQKPGQRPKLLIYRASTLASGVPSRFKGSGSGTEFTLTISGVESADAATYYCQQGATSYDIENPFGGGTEVVVK ?
Result: 3.2

Request: What measured hu-IL1RaP ELISA (OD) goes with P013.S.02.B.A05 (antibody, V domains shown, rabbit monoclonal antibody; also called P013.A.00031.D11) VH: QEQLVESGGGLVQPEGSLTLTCQASGFTFSSYYVICWVRQAPGKGLEWIACIGTGDGLTYYASWAKGRFTISKTSSTTVTLQMTSLTAADTATYFCARDRYATVSGILNLWGPGTLVTVSS VL: DVVMTQTPASVEAAVGGTVTIKCQASQNIYSNCAWYQQKLGQRPKLLIYYVSTLESGVPSRFEGSGYGTEFTLTISDLQSADAATYYCQYTYDSSSSTSWAFGGGTEVVVK ?
Result: 3.6
